What Phage binding ELISA signal, Anti-PSMA Fab with PSMA antigen was measured for each of the following?
Target: T1, PSMA Fab
T1 construct: also called Anti-PSMA Fab; 006 PSMA Fab
Assay: phage ELISA, biotinylated PSMA Fab on neutravidin plate pre-incubated with PSMA antigen as competitor, anti-M13-HRP
One number for each entry.

{"binder": "DVRWCTPPWMCVAM [Phage-2400]", "measured result": 0.078}
{"binder": "MQHWCVPPWMCQSL [Phage-2401]", "measured result": 0.082}

Would you kindly look at the next entry?
**Query** Fill in the blank: the reported Phage binding ELISA signal, Anti-PSMA Fab with PSMA antigen of LERWCIPDWMCEWP [Phage-2394] is ____.
**Result** 0.078
